# Tgt: T1, Pou4f2, full-length, His-tagged (mouse, UniProt Q63934 1-411)
# T1 construct: Pou4f2 (Brn3b), mouse, full-length coding region in pET-28a(+); 411 a.a; also called Brn3b; source: E. coli, in lysate (pull-down); purified on His SpinTrap columns (EMSA); not shown: His tag, C-terminal, kept
# T1 sequence (looked up): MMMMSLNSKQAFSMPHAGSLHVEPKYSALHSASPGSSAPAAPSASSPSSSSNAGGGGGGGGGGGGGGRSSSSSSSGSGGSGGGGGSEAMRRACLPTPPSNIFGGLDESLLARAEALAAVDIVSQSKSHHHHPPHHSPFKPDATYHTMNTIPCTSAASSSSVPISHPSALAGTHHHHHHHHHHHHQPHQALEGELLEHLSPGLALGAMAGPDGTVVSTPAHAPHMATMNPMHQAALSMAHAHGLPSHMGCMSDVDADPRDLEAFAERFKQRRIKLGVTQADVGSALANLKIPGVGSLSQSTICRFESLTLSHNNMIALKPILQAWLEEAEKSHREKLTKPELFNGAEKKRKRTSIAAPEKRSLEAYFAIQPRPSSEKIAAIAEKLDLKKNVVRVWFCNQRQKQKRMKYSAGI
# Test Protocol: native gel or EMSA; EMSA with purified His-tagged proteins (200 ng each) and radiolabelled DNA probes (SBRN3, CBRN3; Ebf3 and Irx6 for Isl1 with Pou4f2D5); protein-protein complex read from a slower migrating ternary complex on DNA; 20 mM Tris-HCl pH 7.5, 0.05 M NaCl, 10 mM DTT, 1 mM EDTA, 5% glycerol, 4 C
# Measurement Context: both partners purified

Binder	binding result
Isl1D3 (a.a. 170-349) (domain or fragment, mouse, UniProt P61372 170-349, looked up, Isl1, mouse, a.a; 170-349, only the homeodomain and the C terminal region, none of the Lim domains; source: E. coli, in lysate (pull-down); purified on His SpinTrap columns (EMSA); not shown: His tag, C-terminal, kept) LRPHVHKQPEKTTRVRTVLNEKQLHTLRTCYAANPRPDALMKEQLVEMTGLSPRVIRVWFQNKRCKDKKRSIMMKQLQQQQPNDKTNIQGMTGTPMVAASPERHDGGLQANPVEVQSYQPPWKVLSDFALQSDIDQPAFQQLVNFSEGGPGSNSTGSEVASMSSQLPDTPNSMVASPIEA	binds
Isl1D4 (a.a. 146-349) (domain or fragment, mouse, UniProt P61372 146-349, looked up, Isl1, mouse, a.a; 146-349; source: E. coli, in lysate (pull-down); purified on His SpinTrap columns (EMSA); not shown: His tag, C-terminal, kept) PLSPLHPARPLQMAAEPISARQPALRPHVHKQPEKTTRVRTVLNEKQLHTLRTCYAANPRPDALMKEQLVEMTGLSPRVIRVWFQNKRCKDKKRSIMMKQLQQQQPNDKTNIQGMTGTPMVAASPERHDGGLQANPVEVQSYQPPWKVLSDFALQSDIDQPAFQQLVNFSEGGPGSNSTGSEVASMSSQLPDTPNSMVASPIEA	binds
Isl1D5 (a.a. 74-349) (domain or fragment, mouse, UniProt P61372 74-349, looked up, Isl1, mouse, a.a; 74-349; source: E. coli, in lysate (pull-down); purified on His SpinTrap columns (EMSA); not shown: His tag, C-terminal, kept) LYGIKCAKCSIGFSKNDFVMRARSKVYHIECFRCVACSRQLIPGDEFALREDGLFCRADHDVVERASLGAGDPLSPLHPARPLQMAAEPISARQPALRPHVHKQPEKTTRVRTVLNEKQLHTLRTCYAANPRPDALMKEQLVEMTGLSPRVIRVWFQNKRCKDKKRSIMMKQLQQQQPNDKTNIQGMTGTPMVAASPERHDGGLQANPVEVQSYQPPWKVLSDFALQSDIDQPAFQQLVNFSEGGPGSNSTGSEVASMSSQLPDTPNSMVASPIEA	binds
